For each entry below, report its Potency value.
target-desc: Glucocorticoid receptor (Homo sapiens) (UniProt P04150)
Sequence (P04150 whole entry, looked up): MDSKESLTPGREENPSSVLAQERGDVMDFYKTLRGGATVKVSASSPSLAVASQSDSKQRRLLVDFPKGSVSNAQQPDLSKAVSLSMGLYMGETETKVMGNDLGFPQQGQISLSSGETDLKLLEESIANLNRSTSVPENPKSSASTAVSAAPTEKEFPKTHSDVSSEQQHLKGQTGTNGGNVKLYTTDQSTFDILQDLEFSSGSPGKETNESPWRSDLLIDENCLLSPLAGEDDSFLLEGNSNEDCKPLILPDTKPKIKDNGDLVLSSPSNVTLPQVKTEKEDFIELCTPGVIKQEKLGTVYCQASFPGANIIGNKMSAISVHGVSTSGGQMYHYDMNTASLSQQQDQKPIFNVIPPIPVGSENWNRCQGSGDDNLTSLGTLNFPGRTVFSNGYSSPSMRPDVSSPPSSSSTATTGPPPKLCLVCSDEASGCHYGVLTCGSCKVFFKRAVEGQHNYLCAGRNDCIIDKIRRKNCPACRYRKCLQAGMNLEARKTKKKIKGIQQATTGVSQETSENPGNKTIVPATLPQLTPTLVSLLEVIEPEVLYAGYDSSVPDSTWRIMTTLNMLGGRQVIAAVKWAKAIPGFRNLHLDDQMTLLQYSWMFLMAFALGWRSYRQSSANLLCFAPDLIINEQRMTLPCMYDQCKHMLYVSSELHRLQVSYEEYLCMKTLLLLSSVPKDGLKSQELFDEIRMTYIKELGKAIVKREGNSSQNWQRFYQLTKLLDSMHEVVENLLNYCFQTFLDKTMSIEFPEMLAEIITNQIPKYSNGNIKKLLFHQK
method-summary: GR-GFP Redistribution (AID 450); also: potency is read from the fitted curve at half-maximal effect
condition-notes: U2OS GR-GFP nuclear translocation, laser cytometry, 2 h
Calls of active or inactive are those of the source.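 The calls were made as follows: active = compounds whose dose series gives a full or clear partial fitted curve of increased nuclear translocation; inconclusive = weak partial curve or effect only at the top dose; inactive = no dose-dependent translocation response.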

Past entries and their recorded results:
COCCn1c(=O)c(-c2ccc(F)cc2)nc2cnc(Nc3cccc(OC)c3)nc21	> 9.22 µM (inactive)
O=S(=O)(O)C1CCNCC1	> 46 µM (inactive)
COc1ccc2[nH]cc(CCNc3ncncc3-c3ccc4c(c3)OCO4)c2c1	> 46 µM (inactive)

// input: 6 compounds below; output: Potency for each
1. CCNc1ncc2nc(-c3ccccc3)c(=O)n(CCC#N)c2n1
2. CN(C)c1ncnc2ccc(-c3cccc(NS(C)(=O)=O)c3)cc12
3. Cn1c(=O)c(-c2ccccc2)nc2cnc(N3CCOCC3)nc21
4. COc1ccccc1CNc1ccnc(-c2cccc(NS(C)(=O)=O)c2)n1
5. O=c1c(CCc2ccccc2)nc2cncnc2n1Cc1ccccc1
6. COc1ccc2[nH]cc(CCNc3ncncc3-c3ccccc3C(F)(F)F)c2c1

Output:
1. > 9.22 µM (inactive)
2. > 46 µM (inactive)
3. > 9.22 µM (inactive)
4. > 46 µM (inactive)
5. > 46 µM (inactive)
6. > 46 µM (inactive)

// input: 5 compounds below; output: Potency for each
1. COc1ccc(-c2nc3cnc(Oc4cccc(Cl)c4)nc3n(C[C@H]3CCCO3)c2=O)cc1
2. COc1ccccc1CNc1cc(-c2cccnc2)ncn1
3. COCCn1c(=O)c(-c2cccc(C#N)c2)nc2cnc(OCc3ccccc3)nc21
4. COc1ccc(-n2c(=O)c(-c3cccs3)nc3cnc(N4CCN(C)CC4)nc32)cc1
5. COc1cccc(-c2nc(NCCN3CCOCC3)c3ccccc3n2)c1

Output:
> 9.22 µM (inactive)
> 46 µM (inactive)
> 9.22 µM (inactive)
> 9.22 µM (inactive)
> 46 µM (inactive)

====

target-desc: Phenylethanolamine N-methyltransferase (Homo sapiens) (UniProt P11086)
Sequence (P11086 whole entry, looked up): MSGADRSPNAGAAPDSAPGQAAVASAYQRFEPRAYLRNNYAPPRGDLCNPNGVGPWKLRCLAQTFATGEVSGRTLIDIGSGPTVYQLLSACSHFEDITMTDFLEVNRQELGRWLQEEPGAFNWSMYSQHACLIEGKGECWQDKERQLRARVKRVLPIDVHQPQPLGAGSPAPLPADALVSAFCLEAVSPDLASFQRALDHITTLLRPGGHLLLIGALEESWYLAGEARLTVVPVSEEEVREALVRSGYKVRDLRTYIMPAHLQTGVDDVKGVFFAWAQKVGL
method-summary: Confirmatory Screen for Target Class Profiling of Small Molecule Inhibitors of Methyltransferases (AID 1745852)
condition-notes: MTase-Glo luminescence, SAH detection, recombinant enzyme; measured here: PNMT max response; stronger effect = lower value
Doc: threshold -10% (exclusive). Items with activity beneath it return label 1; others return label 0.

Below are worked cases with known answers.
CCOC(=O)c1ccc(NC(=O)Cn2c(=O)oc3cc(S(=O)(=O)N4CCCC4)ccc32)cc1	label 1
CCNc1nc2c(s1)C(c1cccc(F)c1)CC(=O)N2 (configuration not stated)	label 1
COc1cc(F)ccc1-c1cc(-c2ccc(=O)[nH]c2)c2cncn2c1	label 0
COc1ccc(OCc2cc(C(=O)NC(CO)C(C)C)no2)c2ccccc12 (configuration not stated)	label 0
N#Cc1cc(CN2CCCC(C(=O)Nc3cccc(-c4ccc(F)cc4)c3)C2)c[nH]1 (configuration not stated)	label 0

Input: Criterion: activity strictly below -10%. Is it met by O=C(Cn1c(=O)oc2cc(S(=O)(=O)N3CCCC3)ccc21)Nc1cccc(Cl)c1 ?
Output: label 1

====

target-desc: Rap guanine nucleotide exchange factor 4 (Homo sapiens)
method-summary: Confirmatory qHTS for agonist of cAMP-regulated guanine nucleotide exchange factor 4 (EPAC2) (AID 1645884);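 also: nucleotide exchange releases bodipy-GDP from Rap1 and this lowers its fluorescence; potency is read from the fitted curve at half-maximal effect; nearly all actives have a fitted effect of over 65% in size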
condition-notes: EPAC2 GEF activity, Rap1B-BODIPY-GDP fluorescence; series mostly up to 154 µM
Inconclusive results are not listed. Calls of active or inactive are those of the source. The call rests on the fitted dose curve; in most records, active means well fitted activation curve with a large enough effect; inconclusive means small, poorly fitted or top-dose-only effect; inactive means no such curve, though single readings can be large or run the other way.
readout-type: Potency

Past entries and their recorded results:
Oc1ccc2nnc3c(Br)cnn3c2c1	112 µM (active)
CC1CCN(c2ccc3c(c2)S(=O)(=O)c2cccc(C(=O)NC4CCCCC4)c2C3=O)CC1	100 µM (active)
Cc1cc2nc3c(=O)[nH]c(=O)[nH]c3nc2c([N+](=O)[O-])c1N	100 µM (active)
O=C1c2cccc3c(O)ccc(c23)C(=O)N1c1ccc(Cl)cc1	112 µM (active)
N#C/C(=C\c1ccc(Sc2ccccc2)o1)c1nc2ccccc2[nH]1	112 µM (active)
CC(C)(C)CNC(=O)c1cccc2c1C(=O)c1ccc(-c3cc4ccccc4o3)cc1S2(=O)=O	79.4 µM (active)
CCCCCCc1cc2cc(C(=O)NC)c(=N)oc2cc1O	100 µM (active)
CC(C)CC(=NNC(=O)c1ccncc1)c1cc(Cl)ccc1O	100 µM (active)

// input: 4 compounds below; output: Potency for each
1. O=c1oc2cc(O)ccc2cc1-c1nc2c(s1)CCc1ccccc1-2
2. CN(C)/C=C1\C=C2C(=O)c3ccccc3N2C1=O
3. Cc1cccc(N2C(=O)c3cccc4c(N)ccc(c34)C2=O)c1
4. CCN(CC)c1ccc2cc(-c3nc(-c4cccs4)no3)c(=O)oc2c1

Output:
1. 100 µM (active)
2. 5.01 µM (active)
3. 112 µM (active)
4. 35.5 µM (active)

// input: 3 compounds below; output: Potency for each
1. CN(N=Nc1ccc([N+](=O)[O-])cc1)c1ccccc1
2. CN1CCN(C2=CC3=CC(=C(C#N)C#N)CCC3CC2)CC1 (stereo not drawn)
3. CCOc1cc(-c2c(C#N)c(N)nc3c2CCCC3C)ccc1O (stereo not drawn)

Output:
["100 µM (active)", "56.2 µM (active)", "0.398 µM (active)"]

====

method-summary: KB-3-1 P-gp reporter qHTS against the NCATS DSHEA and TCM libraries (AID 1919975); also: 0% is about no effect
condition-notes: KB-3-1 parental cells, CellTiter-Glo luminescence viability, 72 h; series mostly up to 26.1 µM
Inconclusive results are not listed. Activity calls are given as the source filed them. The call rests on the fitted dose curve; in most records, active means well fitted curve in the direction sought with a large enough effect; inconclusive means small, poorly fitted or top-dose-only effect, or another doubt; inactive means no such curve, though single readings can be large or run the other way.
readout-type: activity change, negative = inhibition

CC(C)=CCC[C@](C)(O[C@@H]1O[C@H](CO)[C@@H](O)[C@H](O)[C@H]1O)[C@H]1CC[C@]2(C)[C@@H]1[C@H](O)C[C@@H]1[C@@]3(C)CC[C@H](O)C(C)(C)[C@@H]3[C@@H](O[C@@H]3O[C@H](CO)[C@@H](O)[C@H](O)[C@H]3O[C@@H]3O[C@@H](C)[C@H](O)[C@@H](O)[C@H]3O)C[C@]12C	inactive
Oc1cc(O)c2c(c1)O[C@@H](c1cc(O)c(O)c(O)c1)[C@H](O)C2	inactive
COc1ccccc1/C=C/C=O	inactive

====

target-desc: Glutathione peroxidase 1 (Homo sapiens) (UniProt P07203)
Sequence (P07203 whole entry, looked up): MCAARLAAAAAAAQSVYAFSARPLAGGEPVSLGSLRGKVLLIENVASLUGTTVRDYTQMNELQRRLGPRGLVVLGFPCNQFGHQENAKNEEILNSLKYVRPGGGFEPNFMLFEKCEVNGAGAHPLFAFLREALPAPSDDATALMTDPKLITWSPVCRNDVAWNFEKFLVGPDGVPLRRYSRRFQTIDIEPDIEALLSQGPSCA
method-summary: Primary qHTS Assay for Inhibitors of Recombinant Selenoprotein Glutathione Peroxidase 1 (GPX1) (AID 1845191); also: nearly all actives have a fitted effect of over 65% in size
condition-notes: recombinant GPX1, GR-coupled NADPH fluorescence, 15 min; series mostly up to 48.8 µM
Inconclusive results are not listed. Calls of active or inactive are those of the source. The call rests on the fitted dose curve; in most records, active means well fitted inhibition curve with a large enough effect; inconclusive means small, poorly fitted or top-dose-only effect; inactive means flat fitted curve, though single readings scatter.
Thanks in advance; please answer with one of these: class 1 (active), class 0 (inactive)

O=C(CCl)Nc1ccc(S(=O)(=O)c2ccc(NC(=O)CCl)cc2)cc1	class 0

Attention now shifts to the item below.
Input: Assay result, entry COc1ccc(C[C@H](NC(=O)[C@H](C)NC(=O)CN2CCOCC2)C(=O)N[C@@H](Cc2ccccc2)C(=O)[C@@]2(C)CO2)cc1 — outcome?
Output: class 0

====

Tested on: CP185
method-summary: qHTS profiling for inhibitors of Plasmodium falciparum proliferation (AID 504749); also: nearly all actives have a fitted effect of over 60% in size
condition-notes: P. falciparum in erythrocytes, SYBR Green DNA, 72 h; series mostly up to 28.7 µM
Records with an inconclusive call do not appear. Activity calls are given as the source filed them. Calls come from the whole dose curve; as a rule, active = well fitted inhibition curve with a large enough effect; inconclusive = small, poorly fitted or top-dose-only effect; inactive = flat fitted curve, though single readings scatter.
Thanks in advance; please answer with one of these: active, inactive

Below are worked cases with known answers.
CC1CCC(C(C)C)C(OC(=O)c2ccccc2O)C1 (stereo not given)	inactive
C1OCOCO1	inactive
CCN1/C(=C/C=C/C=C/c2sc3ccccc3[n+]2CC)Sc2ccccc21	active
CO[C@@H]1[C@@H](OC2OC(C)C(OC3CC(C)(O)C(OC(=O)CC(C)C)C(C)O3)C(N(C)C)C2O)[C@@H](CC=O)C[C@@H](C)C(=O)/C=C\C2O[C@H]2C[C@@H](C)OC(=O)C[C@H]1OC(C)=O (stereo not given in full)	active

Attention now shifts to the item below.
Input: Assay result, entry CCC(C)n1ncn(-c2ccc(N3CCN(c4ccc(OCC5COC(Cn6cncn6)(c6ccc(Cl)cc6Cl)O5)cc4)CC3)cc2)c1=O (stereo not given) — outcome?
Output: inactive

====

target-desc: Mitogen-activated protein kinase 10 (Mus musculus)
method-summary: JNK3 AlphaScreen Assay (AID 530);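 also: kinase came from lysate of stimulated human HepG2 cells; signal reports phosphorylation of biotinylated GST-cJun 1-79 at Ser73 with 10 µM ATP; % is scaled to controls: 0 for no effect and ±100 for the full control effect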
condition-notes: JNK3 lysate, c-Jun phosphorylation; series mostly up to 57.1 µM
Inconclusive results are not listed. Activity calls are given as the source filed them. Calls follow the shape of the dose curve; as a rule, active = well fitted curve in either direction with a large enough effect (not every such curve was filed as active); inconclusive = small, poorly fitted or top-dose-only effect, or another doubt; inactive = flat fitted curve, though single readings scatter.
readout-type: activity change, negative = inhibition

COc1ccccc1-c1ccc2ncnc(N3CCNCC3)c2c1	inactive
CC1=C2[C@H](/C=C(\C)C(=O)O)CC[C@@H](C)[C@H]2CC1	inactive
COc1cccc(Nc2ncc3nc(-c4cc(F)cc(F)c4)c(=O)n(CCC#N)c3n2)c1	inactive
COc1ccccc1-c1nc(N2CCN(C)CC2)c2ccccc2n1	inactive
CC(=O)OC/C=C(\C)CCC=C(C)C	inactive

// input: 3 compounds below; output: activity change, negative = inhibition for each
1. COc1cccc(-c2nc(NCc3cccnc3)c3ccccc3n2)c1
2. CCNc1ncc2ncc(=O)n(Cc3cccc(OC)c3)c2n1
3. CC1(C)CC(N=C=O)CC(C)(CN=C=O)C1 (stereo unspecified)

Output:
1. inactive
2. inactive
3. inactive

// input: 3 compounds below; output: activity change, negative = inhibition for each
1. CC(C)=CCc1c(O)cc(O)c2c1O[C@H](c1ccccc1)CC2=O
2. c1ccc2c(NCCN3CCOCC3)nc(-c3ccc4c(c3)OCO4)nc2c1
3. CN(C)C(=O)c1ccc(-c2nc(N3CCOCC3)c3ccccc3n2)cc1

Output:
1. inactive
2. inactive
3. inactive
